Ki, Alpha-2C adrenergic receptor: measured values
Reply with just the number (in nM).

Exam item: Output reported Ki of the molecule CN1CCC2(CCN3CCc4c(oc5ccccc45)C3C2)N(C)C1=O (stereo not drawn) [MK-912] on Alpha-2C adrenergic receptor.
Marked response: 0.03

Exam item: Fetch value of Ki on Alpha-2C adrenergic receptor for CCC1(c2cnc[nH]2)Cc2ccccc2C1 [NSC_71310] .
Marked response: 0.46

====

# study target: Alpha-2C adrenergic receptor
measure: Ki (nM)
Note: unit nM is implicit; provide only the numeric part.

CS(=O)(=O)NCCN(C1CCN2CCc3ccccc3C2C1)S(C)(=O)=O (stereo not given)	0.56

Exam item: Provide Ki value for the following molecule: CN1CCN(C2=c3ccccc3=Nc3ccc(Cl)cc3N2)CC1
Marked response: 4.2

Exam item: Please give measured Ki of the following entry: O=C1NCN(c2ccccc2)C12CCN(CC1COc3ccccc3O1)CC2 (stereo not given)
Marked response: 0.59

Exam item: Using the record for Oc1ccc(C2CNCCc3c2cc(O)c(O)c3Cl)cc1 (stereo not given) , state its measured Ki.
Marked response: 22

Exam item: Answer with the recorded Ki of c1ccc2c(c1)OCC(CN1CCCCC1)O2 (stereo not given) only.
Marked response: 1.3

====

// Alpha-2C adrenergic receptor log10 of Ki records
Please note: log10 values; quantity Ki; unit nM.

Clc1cncc(N2CCNCC2)n1 [L-630,571]	2.10
c1ccc(CC2=NCCN2)cc1 [Tolazoline]	2.35
CN1CCN(C2=Nc3ccccc3Sc3nccn32)CC1 [CGS-10746B]	2.91
CCCCS(=O)(=O)N(C)[C@H]1CCN2CCc3ccccc3[C@H]2C1	-0.34
C=CCN1Cc2ccccc2-c2ccccc2C1 [NSC_8966]	1.15

Exam item: Quickly give me recorded log10 of Ki for CN(C)CCCN1c2ccc(O)cc2Sc2ccc(Cl)cc21 [NSC_16414]
Marked response: 2.51

Exam item: Give the value of log10 of Ki reported for the following: CCCN(CCC)C1CCc2cccc(O)c2C1 (stereo unspecified)
Marked response: 2.07

Exam item: Quick one: give measured log10 of Ki for c1cn2ccnc2c(N2CCNCC2)n1 [L-639,019]
Marked response: 1.94

Exam item: Identify measured log10 of Ki associated with O=C(c1ccc(F)cc1)C1CCN(CCn2c(=O)[nH]c3ccccc3c2=O)CC1
Marked response: 2.20

Exam item: Complete the entry with log10 of Ki for CC(C)=CCOc1ccc(Cl)c2c1CCN(C)CC2 [SK&F-104078]
Marked response: 1.63

Exam item: Respond only with log10 of Ki recorded for CCOC1(C2=NCCN2)COc2ccccc2O1 (stereo unspecified) [NSC_125992]
Marked response: -0.62

====

# study target: Alpha-2B adrenergic receptor (Rattus norvegicus, UniProt P19328)
# Sequence (P19328 whole entry): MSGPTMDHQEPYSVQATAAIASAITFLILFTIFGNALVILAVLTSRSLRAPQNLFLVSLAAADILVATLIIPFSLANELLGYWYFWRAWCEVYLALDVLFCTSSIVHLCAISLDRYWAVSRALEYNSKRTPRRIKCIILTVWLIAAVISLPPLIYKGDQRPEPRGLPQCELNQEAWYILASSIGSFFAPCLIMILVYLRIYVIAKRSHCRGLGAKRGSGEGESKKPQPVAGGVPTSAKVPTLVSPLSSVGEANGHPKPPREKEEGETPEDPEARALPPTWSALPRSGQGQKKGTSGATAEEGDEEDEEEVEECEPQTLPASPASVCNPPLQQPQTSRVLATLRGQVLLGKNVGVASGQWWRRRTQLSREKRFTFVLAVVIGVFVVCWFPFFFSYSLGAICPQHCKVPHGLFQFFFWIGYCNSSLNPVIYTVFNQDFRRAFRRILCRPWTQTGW
pKi: −log10 of the molar value.
Kindly note that classification relies on pKi with these boundaries: low group = under 7, middle group = from 7 up to 9, high group = 9 and over

Recorded results for 2 molecules are shown here.
CCCS(=O)(=O)N(C)C1CCN2CCc3ccccc3C2C1 (configuration not stated) [CAS_133816]	middle group
CN1CCN(C2=Nc3ccccc3Sc3nccn32)CC1 [CGS-10746B]	low group

# input for lookup
Exam item: Categorize the following entry: COC(=O)C1=CO[C@@H](C)[C@@H]2CN3CCc4c([nH]c5ccccc45)[C@H]3C[C@H]12 [AKUAMMIGINE]
Marked response: low group

====

# study target: Alpha-2C adrenergic receptor
measure: Ki (nM)
Kindly answer with a numeric value in nM, unit omitted.

Clc1ccc2nsnc2c1NC1=NCCN1	75

Exam item: // fetch Ki; item: c1ccc2c(c1)OCC(C1=NCCN1)O2 (stereo not drawn) ; system: Alpha-2C adrenergic receptor
Marked response: 0.56

Exam item: Enter recorded Ki with Alpha-2C adrenergic receptor for CCCS(=O)(=O)N(C)C1CCN2CCc3ccccc3C2C1 (stereo not drawn) here.
Marked response: 0.86

====

# study target: Alpha-2A adrenergic receptor (Homo sapiens, UniProt P08913)
# Sequence (P08913 whole entry): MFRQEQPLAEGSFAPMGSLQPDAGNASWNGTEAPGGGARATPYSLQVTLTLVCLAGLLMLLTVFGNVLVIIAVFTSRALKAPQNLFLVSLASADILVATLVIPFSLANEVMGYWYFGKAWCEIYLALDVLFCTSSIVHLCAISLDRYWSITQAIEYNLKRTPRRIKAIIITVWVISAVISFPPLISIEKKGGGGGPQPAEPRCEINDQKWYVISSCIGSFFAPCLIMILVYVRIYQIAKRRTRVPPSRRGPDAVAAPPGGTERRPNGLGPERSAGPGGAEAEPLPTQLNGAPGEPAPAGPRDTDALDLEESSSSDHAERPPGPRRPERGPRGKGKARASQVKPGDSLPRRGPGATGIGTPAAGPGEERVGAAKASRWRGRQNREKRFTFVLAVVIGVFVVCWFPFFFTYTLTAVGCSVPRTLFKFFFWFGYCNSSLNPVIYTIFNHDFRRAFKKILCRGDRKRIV
measure: log10 of Ki (log10 of the value in nM)
Kindly note that the scale is log10 and the underlying Ki is in nM.

// below: answered molecules
COc1ccccc1N1CCN(CCC2C(=O)c3ccccc3C(C)(C)C2=O)CC1 (centres undefined)	2.23
COC(=O)C1=CO[C@@H](C)[C@@H]2CN3CCc4c([nH]c5ccccc45)[C@H]3C[C@H]12	2.11
CN1CCc2cccc(Cl)c2CC1	0.38
CN1CCN(C2=Nc3ccccc3Sc3nccn32)CC1 [CGS-10746B]	3.56
CN1c2ccc(F)cc2CC1C1=NCCN1 (centres undefined)	-0.40

Exam item: Provide one value: measured log10 of Ki of Clc1cncc(N2CCNCC2)n1
Marked response: 2.18

Exam item: Give a short answer stating reported log10 of Ki for CCCS(=O)(=O)N(C)C1CCN2CCc3ccccc3C2C1 (centres undefined) .
Marked response: 0.34

Exam item: # return recorded log10 of Ki for input COc1cccc(OC)c1OCCNCC1Oc2ccccc2OC1c1ccccc1 (centres undefined)
Marked response: 0.08

====

# study target: Alpha-2A adrenergic receptor (Homo sapiens, UniProt P08913)
# Sequence (P08913 whole entry): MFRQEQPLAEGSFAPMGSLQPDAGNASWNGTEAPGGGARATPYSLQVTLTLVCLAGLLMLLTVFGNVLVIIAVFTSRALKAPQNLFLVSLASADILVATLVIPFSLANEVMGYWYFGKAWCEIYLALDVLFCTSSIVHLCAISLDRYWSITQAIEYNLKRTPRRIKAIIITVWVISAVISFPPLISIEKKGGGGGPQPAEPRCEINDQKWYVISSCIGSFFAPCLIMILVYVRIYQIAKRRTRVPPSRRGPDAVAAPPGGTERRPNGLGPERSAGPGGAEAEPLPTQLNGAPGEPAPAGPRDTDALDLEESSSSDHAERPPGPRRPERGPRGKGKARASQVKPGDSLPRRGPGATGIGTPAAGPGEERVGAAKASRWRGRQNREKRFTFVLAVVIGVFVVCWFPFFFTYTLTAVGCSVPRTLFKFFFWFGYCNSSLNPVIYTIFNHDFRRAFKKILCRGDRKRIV
measure: Ki
Please state the value followed by its unit.

CN1CCC2(CCN3CCc4c(oc5ccccc45)C3C2)N(C)C1=O (stereo not given) [MK-912]	0.00042 µM
C=CCN1Cc2ccccc2-c2ccccc2C1 [NSC_8966]	0.038 µM
CCOC1(C2=NCCN2)COc2ccccc2O1 (stereo not given) [NSC_125992]	0.0002 µM
Cc1nc2n(c(=O)c1CCN1CCC(C(=O)c3ccc(F)cc3)CC1)CCS2 [CAS_86487-64-1]	0.09 µM

Let's switch to this compound now.
Exam item: Param request: Ki | system Alpha-2A adrenergic receptor (Homo sapiens, UniProt P08913) | item Fc1cccnc1N1CCNCC1 [L-644,763]
Marked response: 0.02 µM

====

Numbered stars: 1 amine (or outer) side, 2 acyl side, 3 side chain; on linkers, the order of the positions; unused ones are H or OH. Square brackets hold non-standard residues; d marks the D form. Peptide text beside a SMILES is read from it. * marks the point of attachment. Cyclohexylacetyl(1-SH) = O=C(CC1(S)CCCCC1)*; X1 = O=C(C(C=S)N[*:1])[*:2]
A set of compounds tested on Alpha-2C adrenergic receptor, with measured log10(Ki):
Hi team, quick reminder: these entries are log10 of Ki (nM).

Check out these entries, answers already filled in.
COc1ccccc1N1CCN(CCC2C(=O)c3ccccc3C(C)(C)C2=O)CC1 (stereo unspecified) [NSC_122211]	1.11
CC(C)(C)[C@]1(O)CCN2C[C@H]3c4ccccc4CCc4cccc(c43)[C@@H]2C1	1.62
COc1cccc(OC)c1OCCNCC1Oc2ccccc2OC1c1ccccc1 (stereo unspecified) [NSC_185453]	-0.57

Exam item: Lab note: record log10(Ki) of CN1CCc2cccc(Cl)c2CC1 [MLS002172470] tested on Alpha-2C adrenergic receptor.
Marked response: 0.43

Exam item: Please report log10(Ki) with Alpha-2C adrenergic receptor for item Cc1nc2n(c(=O)c1CCN1CCC(C(=O)c3ccc(F)cc3)CC1)CCS2 [CAS_86487-64-1] .
Marked response: 1.71

Exam item: Provide log10(Ki), system Alpha-2C adrenergic receptor, entry COc1cc2nc(N3CCN(C(=O)c4ccco4)CC3)nc(N)c2cc1OC [[3H]-Minipress]
Marked response: 1.18

Exam item: Please indicate recorded log10(Ki) of Clc1cccc2c1CN(NC1=NCCN1)C2 [CAS_76727-72-5] measured with Alpha-2C adrenergic receptor.
Marked response: -1.10

Exam item: Given CN1c2ccc(F)cc2CC1C1=NCCN1 (stereo unspecified) , report its log10(Ki) on Alpha-2C adrenergic receptor.
Marked response: -0.32

Exam item: State log10(Ki) (Alpha-2C adrenergic receptor) of OCCN1CCN(CCCN2c3ccccc3Sc3ccc(C(F)(F)F)cc32)CC1 .
Marked response: 2.09

Exam item: State, for Alpha-2C adrenergic receptor, measured log10(Ki) of the compound listed here: CN1C[C@H](Cn2ccnc2-c2ccccc2)C[C@@H]2c3cccc4[nH]c(Br)c(c34)C[C@H]21 [BAM-1303]
Marked response: -0.42

Exam item: Param request: log10(Ki) | system Alpha-2C adrenergic receptor | item CSc1ccc2c(c1)N(CC[C@@H]1CCCCN1C)c1ccccc1S2
Marked response: 2.74

Exam item: Report log10(Ki) from Alpha-2C adrenergic receptor testing of CCOc1ccc(CC(NC(=O)CC2(S)CCCCC2)C(=O)NC(Cc2ccccc2)C(=O)NC(C(=O)NC(CC(N)=O)C(=O)NC(C=S)C(=O)NC(CCCCN)C(N)=O)C(C)C)cc1 (stereo unspecified) [CAS_196343] ({Cyclohexylacetyl(1-SH)}-Y(Et)FVN[X1]K-NH2; configuration not given here)
Marked response: -0.85

Exam item: Provide the reported log10(Ki) (system: Alpha-2C adrenergic receptor) for Cc1cccc(C)c1CCc1cnc[nH]1 [CAS_133305]
Marked response: 1.15

Exam item: GET log10(Ki) where system = Alpha-2C adrenergic receptor and item = COC(=O)C1=CO[C@@H](C)[C@@H]2CN3CCc4c([nH]c5ccccc45)[C@H]3C[C@H]12 [AKUAMMIGINE]
Marked response: 1.08

Exam item: Using Alpha-2C adrenergic receptor as the test system, report measured log10(Ki) of Fc1cccnc1N1CCNCC1 [L-644,763] .
Marked response: 1.30

Exam item: GET log10(Ki) where system = Alpha-2C adrenergic receptor and item = O=C1c2ccccc2CCC1CNCCc1ccc(O)cc1 (stereo unspecified) [CAS_34772]
Marked response: -0.30
